assayTarget: T1, recombinant human OX40-Fc (human, UniProt P43489 29-214)
T1 construct: also called rh-OX40-Fc; human OX40 hFC (R & D systems)
T1 sequence: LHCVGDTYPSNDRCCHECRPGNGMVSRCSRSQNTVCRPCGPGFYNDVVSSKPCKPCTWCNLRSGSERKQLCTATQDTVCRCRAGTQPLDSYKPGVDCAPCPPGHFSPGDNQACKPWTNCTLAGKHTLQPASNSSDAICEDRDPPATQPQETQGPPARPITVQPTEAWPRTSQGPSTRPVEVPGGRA
experimentSummary: ELISA, OX40-Fc coated, VHH at 200 nM
Some binders, each annotated with its measured OD450.
In your answer, state the number alone without any accompanying words.

Known OD450 results, listed for orientation:
pgXX88-10 (VHH, not shown: small tags and cut ends) VHH: EVQLVESGGGLVQAGESLRLSCSASGSIRLNAVGWFRQAPVNQRLMVATITHNNSTNYADSVQGRFTIARDDAKNTVTLQMNSLKPEDTAVYMCKVYQLPVPISSHDDYWGQGTQVTVSS ... 1.61
pgXX88-SZ-4 (VHH, not shown: small tags and cut ends, also called ppXX88-SZ-4) VHH: QVQLVESGGGLAQPGSSLRLSCTASGTVFSILSATWFRQAPGKAHEARELVAFISSDGVSMHADSVKGRFTISRDNAASTVYLQMDNLQPEDTAVYFCKLSNSMMSLEYWGRGTQVTVSS ... 1.58

-- ask Recorded OD450 for pgXX88-16 (VHH, not shown: small tags and cut ends) VHH: QVQLVESGGGLVQAGESLNLSCSASGSIRNNAVAWFRQGPGNQRLRVAAITNTGTTDYADSVQGRFSIARDNAENTVTLQMNSLKPEDTAIYYCKIYTLPVPISSHDDTWGQGTQVTVSS , please?
-- reply 1.61
